Origin of values: paper PMC8002983

Assay system: purified liver bovine arginase (b-ARGI) (Bos taurus, UniProt Q2KJ64)
Construct: purified liver bovine arginase 1, which was purchased from MP Biomedicals; purchased MP Biomedicals (Illkirch-Graffenstaden, France); host or cells: bovine liver (tissue-purified)
Sequence (Q2KJ64 1-322): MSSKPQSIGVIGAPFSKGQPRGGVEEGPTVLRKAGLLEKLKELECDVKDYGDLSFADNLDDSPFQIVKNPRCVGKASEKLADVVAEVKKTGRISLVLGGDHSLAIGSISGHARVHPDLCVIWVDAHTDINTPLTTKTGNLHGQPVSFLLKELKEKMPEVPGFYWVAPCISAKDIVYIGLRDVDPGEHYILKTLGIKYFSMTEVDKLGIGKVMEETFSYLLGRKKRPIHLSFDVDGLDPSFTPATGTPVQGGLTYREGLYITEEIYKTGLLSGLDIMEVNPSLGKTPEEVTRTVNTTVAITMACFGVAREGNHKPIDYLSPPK
Procedure summary: in vitro arginase inhibitory assay (colorimetric urea detection)
Format: biochemical
Measurement parameters: means ± SEM, three distinct experiments in triplicate, read-out: Arginase Inhibition, IC50
Measured endpoint: IC50 (µM)

Molecule	Assay system	IC50 (µM)
Oc1cc(O)cc(-c2c(-c3ccc(O)c(O)c3)oc3cc4oc(-c5ccc(O)c(O)c5)c(-c5cc(O)cc(O)c5)c4c(/C=C/c4ccccc4)c23)c1 [Compound 6, trans-cyperusphenol A]	purified liver bovine arginase (b-ARGI) (Bos taurus, UniProt Q2KJ64)	19.4

a: Oc1ccc(/C=C/c2cc(O)cc3c2[C@H](c2cc(O)cc(O)c2)[C@@H](c2ccc(O)c(O)c2)O3)cc1 (stereo in doubt) [Compound 4, trans-scirpusin A]
b: COc1cc2c3c(cc(O)cc3c1)C(C)(C)c1c-2ccc(OC)c1O
Could you tell me which of a and b has the lower IC50 reading? I would appreciate it if you answered with the label of your choice.
a
